- System: ACHN
- EXPERIMENT_NOTES: NCI tumour cell line growth inhibition, 48 h
The source made the active and inactive calls. Cut-off read from the data, not from the text of the source: active = GI50 up to about 1.1 µM and inactive = higher.
Listed molecules paired with reported GI50

CC(=O)Oc1c(C)c2c(O)c3c1C1=C(OCOC1=C(C)C3=O)/C(C)=C/C(C)(O)C(O)C(C)C(O)C1C(=O)OC(C(C)C1O)C(C)(O)/C=C\C=C(C)C(=O)N2 (stereo not drawn) = 33.9 µM (inactive)
Cc1cc(C)nc(NC(=S)Nc2ccc([N+](=O)[O-])cc2)c1 = > 100 µM (inactive)
CN1CCc2c1nc(-c1ccccc1)c1c2N(C)CC1 = > 100 µM (inactive)

[ask] So what's the measured GI50 for this one? `NCP(=O)(O)OCC(=O)O`
[reply] > 100 µM (inactive)

[ask] Here is the next molecule: `O=C1C(=Cc2cccc(Cl)c2)N=C(c2ccccc2)N1n1c(-c2ccccc2)nc2ccccc2c1=O`
[reply] 37.7 µM (inactive)

[ask] Thanks! And `O=C1C(Br)=CC2(C=C1Br)CCNC1=C2C2=NCCc3c[nH]c(c32)C1=O` ?
[reply] 0.0962 µM (active)

[ask] Okay, and C[Si](C)(C)/C=C/CN1C(=O)CCC1O (stereo not drawn) ?
[reply] > 100 µM (inactive)

[ask] Follow-up entry: `ON/N=C/c1cc2c(cc1Br)OCO2`
[reply] > 386 µM (inactive)

[ask] Now consider CC(=O)C1C(=O)C(=O)N(c2ccc([N+](=O)[O-])cc2Cl)C1=O (stereo not drawn) and answer again.
[reply] > 100 µM (inactive)

[ask] Consider next the molecule CC1NOC(NS(=O)(=O)c2ccc(/N=N/c3c(O)c(C(=O)O)cc4ccccc34)cc2)C1C (stereo not drawn) in the same way.
[reply] > 100 µM (inactive)

[ask] Same lookup for `COc1ccccc1/C=C1\C(=O)N(C(=O)c2ccc(NC(C)=O)cc2)N=C1C` , please.
[reply] > 100 µM (inactive)

[ask] Moving on to CCCC(=O)OC1CC(n2cc(F)c(=O)[nH]c2=O)OC1CO (stereo not drawn)
[reply] 0.0506 µM (active)

[ask] Follow-up entry: `O=S1(=O)OCc2ccccc21`
[reply] 61.5 µM (inactive)

[ask] Check `CN1CCc2c1nc(-c1ccc([N+](=O)[O-])cc1)c1c2N(C)CC1` too.
[reply] > 100 µM (inactive)

[ask] Also `Cc1ccc(S(=O)(=O)C2=C(C(C)C)N=NC2(C)C)cc1` , if possible.
[reply] > 100 µM (inactive)

---

- Tested on: KM-20L2
- EXPERIMENT_NOTES: NCI tumour cell line growth inhibition, 48 h
Counter-ions that a name gives are not always drawn. Calls of active or inactive are those of the source. Cut-off read from the data, not from the text of the source: active = GI50 up to about 1.1 µM and inactive = higher.
Examples of molecules with documented GI50 follow.

Reference set (5 entries):
CCCCCCCCC1=CCC(CN(C)C)C1=O (stereo not given) = 21.9 µM (inactive)
Oc1ccc(Cn2c(-c3ccc(O)cc3)nc3ccccc32)cc1 = > 100 µM (inactive)
CC(=O)N(C)c1ccc(Nc2cc(C)nc3ccc4nc[nH]c4c23)cc1 [ACODAZOLE HYDROCHLORIDE] = 11.9 µM (inactive)
NNC(=O)C(=O)N/N=C(\CCCC(=O)Nc1ccc(Cl)cc1)CC(=O)c1ccc(F)cc1 = 7.31 µM (inactive)
C=CCNC(=S)OCCCCCCCCCC = 18.6 µM (inactive)

[ask] What value of measured GI50 is listed for `CCOC(=O)c1cc2c(nc1N)-c1ncccc1CC2` ?
[reply] 37.2 µM (inactive)

[ask] Repeat for the following molecule: CC1OC(n2ccc(=O)[nH]c2=O)C=C(OC(=O)c2ccccc2)C1=O (stereo not given)
[reply] 73.5 µM (inactive)

[ask] Then what about the molecule `COC(=O)[C@@H](O)[C@](O)(CCC(C)C)C(=O)O[C@@H]1C(OC)=C[C@]23CCCN2CCc2cc4c(cc2[C@H]13)OCO4` ?
[reply] 1.5 µM (inactive)
